Cited source: ChEMBL document CHEMBL3244249

Species on record: Gallus gallus
Test: Displacement of [3H]-1-alpha,25-(OH)2-D3 from chicken intestinal cytosol chromatin receptor after 30 mins by scintillation counting relative to 1-alpha,25-(OH)2-D3
Recorded RCI for the following compounds
The reply should be a number in %, with the unit left off.

Recorded RCI, per entry:
C=C1/C(=C\C=C2/CCC[C@]3(C)[C@@H]([C@H](C)CCC(C)(C)O)CC[C@@H]23)C[C@@H](O)C[C@@H]1O ... 46
C=C1CC[C@H](O)C/C1=C\C=C1/CCC[C@]2(C)[C@@H]([C@H](C)CCCC(C)(C)O)CC[C@@H]12 ... 0.58
C=C1CC[C@H](O)C/C1=C\C=C1/CCC[C@]2(C)[C@@H]([C@H](C)CCC(C)(C)O)CC[C@@H]12 ... 0.1

We now examine a further compound.
Reported RCI of `C=C1CC[C@H](O)C/C1=C\C=C1/CCC[C@]2(C)[C@@H]([C@H](C)CCCCC(C)(C)O)CC[C@@H]12` : 0.066
